tested on: hMSC-TERT; conditions: 10 μM inhibitor in osteogenic inducing media, 6 days after induction, hMSC-TERT
Provide the recorded Relative ALP activity for the entries that follow.
Keep it simple and answer with nothing but the number.

Look up Relative ALP activity: COCc1cc(O)c(O)c(O)c1-c1c(COC)cc(O)c(O)c1O [HBDDE] 0.7296

Need Relative ALP activity, item COc1c(C=O)c(O)cc2c1C(=O)c1ccccc1C2=O [Damnacanthal] 0.3273

Need Relative ALP activity of Cn1cnc2nc(NCCO)nc(NCc3ccccc3)c21 [iso-Olomoucine] , thanks. 0.9318

I'd like to know its Relative ALP activity. The molecule in question is CC(C)n1cnc2c(NCc3ccccc3)nc(NCCO)nc21 [N9-Isopropyl-olomoucine] 0.6666

# get_value(readout='Relative ALP activity', item= CC1CNCCN1S(=O)(=O)c1cccc2cnccc12 (centres unmarked) [H-7] ) 0.9015

If you can, please state the reported Relative ALP activity value of Oc1c2ccccc2c2c3c(cccc13)N=N2 [SP 600125] . 0.2913

// Relative ALP activity lookup, key: O=C1Nc2ccccc2/C1=C1/Nc2ccccc2C1=O [Indirubin] 0.18

Param item = C[S+]([O-])c1ccc(-c2nc(-c3ccc(F)cc3)c(-c3ccncc3)[nH]2)cc1 (centres unmarked) [SB-203580] ; retrieve measured Relative ALP activity. 0.458

I am curious: what Relative ALP activity value has been reported for CN(C)c1ccc(/C=C2\C(=O)Nc3ccccc32)cc1 [SU 4312] ? 0.5349

Using the record for O=C(O)c1ccc2nc(-c3ccccc3)c(-c3ccccc3)nc2c1 [BML-257] , report its Relative ALP activity. 0.7884

Quick one: Relative ALP activity of O=S(=O)(c1cccc2cnccc12)N1CCCNCC1 [HA-1077] ? 0.908

I have this molecule here, O=c1c(-c2ccc(O)cc2)coc2cc(O)ccc12 [Daidzein] , and I need its recorded Relative ALP activity. 1.025

Which Relative ALP activity is reported for this molecule? NCCNS(=O)(=O)c1cccc2cnccc12 [H-9] 0.9783

I'd like to know its Relative ALP activity. The molecule in question is O=S(=O)(c1cccc2c(I)cccc12)N1CCCNCC1 [ML-7] 0.9564
